- Tested on: MDA-MB-231 cells
Property name: Average (percentage cell inhibition), Dmastoparan MDA-MB231 12.5uM
Phrase the answer as number then unit, nothing more needed.

mol=CC[C@H](C)[C@H](N)C(=O)N[C@@H](CC(N)=O)C(=O)N[C@@H](CC(C)C)C(=O)N[C@@H](CCCCN)C(=O)N[C@@H](C)C(=O)N[C@@H](CC(C)C)C(=O)N[C@@H](C)C(=O)N[C@@H](C)C(=O)N[C@@H](CC(C)C)C(=O)N[C@@H](C)C(=O)N[C@@H](CCCCN)C(=O)N[C@@H](CCCCN)C(=O)N[C@@H](CO)C(=O)N[C@@H](CC(C)C)C(N)=O reported=39.6113%
mol=CC[C@H](C)[C@H](N)C(=O)N[C@@H](CC(N)=O)C(=O)N[C@@H](CC(C)C)C(=O)N[C@@H](CCCCN)C(=O)N[C@@H](C)C(=O)N[C@@H](CC(C)C)C(=O)N[C@@H](C)C(=O)N[C@@H](C)C(=O)N[C@@H](CC(C)C)C(=O)N[C@@H](C)C(=O)N[C@@H](CCCCN)C(=O)N[C@@H](CO)C(=O)N[C@H](C(=O)N[C@@H](CC(C)C)C(N)=O)[C@@H](C)CC reported=38.966%
mol=CC[C@H](C)[C@H](N)C(=O)N[C@@H](CC(N)=O)C(=O)N[C@@H](CC(C)C)C(=O)N[C@@H](CCCCN)C(=O)N[C@@H](C)C(=O)N[C@@H](CC(C)C)C(=O)N[C@@H](C)C(=O)N[C@@H](C)C(=O)N[C@@H](CC(C)C)C(=O)N[C@@H](C)C(=O)N[C@@H](CCCCN)C(=O)N[C@@H](CCCCN)C(=O)N[C@@H](CC(N)=O)C(=O)N[C@@H](CC(C)C)C(N)=O reported=29.0846%
mol=CC[C@H](C)[C@H](NC(=O)[C@H](CCCCN)NC(=O)[C@H](CCCCN)NC(=O)[C@H](C)NC(=O)[C@H](CC(C)C)NC(=O)[C@H](C)NC(=O)[C@H](C)NC(=O)[C@H](CC(C)C)NC(=O)[C@H](C)NC(=O)[C@H](CCCCN)NC(=O)[C@H](CC(C)C)NC(=O)[C@H](CC(N)=O)NC(=O)[C@H](C)N)C(=O)N[C@@H](CC(C)C)C(N)=O reported=30.2333%
mol=CC[C@H](C)[C@H](N)C(=O)N[C@@H](CC(N)=O)C(=O)N[C@@H](CC(C)C)C(=O)N[C@@H](CCC(N)=O)C(=O)N[C@@H](C)C(=O)N[C@@H](CC(C)C)C(=O)N[C@@H](C)C(=O)N[C@@H](C)C(=O)N[C@@H](CC(C)C)C(=O)N[C@@H](C)C(=O)N[C@@H](CCCCN)C(=O)N[C@@H](CCCCN)C(=O)N[C@H](C(=O)N[C@@H](CC(C)C)C(N)=O)[C@@H](C)CC reported=34.9808%
mol=CC[C@H](C)[C@H](N)C(=O)N[C@@H](CC(N)=O)C(=O)N[C@@H](CC(C)C)C(=O)N[C@@H](CCCCN)C(=O)N[C@@H](Cc1c[nH]c2ccccc12)C(=O)N[C@@H](CC(C)C)C(=O)N[C@@H](C)C(=O)N[C@@H](C)C(=O)N[C@@H](CC(C)C)C(=O)N[C@@H](C)C(=O)N[C@@H](CCCCN)C(=O)N[C@@H](CCCCN)C(=O)N[C@H](C(=O)N[C@@H](CC(C)C)C(N)=O)[C@@H](C)CC reported=97.3063%
mol=CC[C@H](C)[C@H](N)C(=O)N[C@@H](CC(N)=O)C(=O)N[C@@H](CC(C)C)C(=O)N[C@@H](CCCCN)C(=O)N[C@@H](C)C(=O)N[C@@H](CC(C)C)C(=O)N[C@@H](C)C(=O)N[C@@H](CCCNC(=N)N)C(=O)N[C@@H](CC(C)C)C(=O)N[C@@H](C)C(=O)N[C@@H](CCCCN)C(=O)N[C@@H](CCCCN)C(=O)N[C@H](C(=O)N[C@@H](CC(C)C)C(N)=O)[C@@H](C)CC reported=42.355%
mol=CC[C@H](C)[C@H](N)C(=O)N[C@@H](CC(N)=O)C(=O)N[C@@H](CC(C)C)C(=O)N[C@@H](CCCCN)C(=O)N[C@@H](C)C(=O)NCC(=O)N[C@@H](C)C(=O)N[C@@H](C)C(=O)N[C@@H](CC(C)C)C(=O)N[C@@H](C)C(=O)N[C@@H](CCCCN)C(=O)N[C@@H](CCCCN)C(=O)N[C@H](C(=O)N[C@@H](CC(C)C)C(N)=O)[C@@H](C)CC reported=27.1038%

Checklist item: Average (percentage cell inhibition), Dmastoparan MDA-MB231 12.5uM tested on MDA-MB-231 cells, entry CC[C@H](C)[C@H](N)C(=O)N[C@@H](CC(N)=O)C(=O)N[C@@H](CC(C)C)C(=O)N[C@@H](CCCCN)C(=O)N[C@@H](C)C(=O)N[C@@H](CC(C)C)C(=O)N[C@@H](C)C(=O)N[C@@H](C)C(=O)N[C@@H](CC(C)C)C(=O)N1CCC[C@H]1C(=O)N[C@@H](CCCCN)C(=O)N[C@@H](CCCCN)C(=O)N[C@H](C(=O)N[C@@H](CC(C)C)C(N)=O)[C@@H](C)CC , value?
28.7019%

Checklist item: Average (percentage cell inhibition), Dmastoparan MDA-MB231 12.5uM tested on MDA-MB-231 cells, entry CC[C@H](C)[C@H](N)C(=O)N[C@@H](CC(N)=O)C(=O)N[C@@H](CC(C)C)C(=O)N[C@@H](CCC(=O)O)C(=O)N[C@@H](C)C(=O)N[C@@H](CC(C)C)C(=O)N[C@@H](C)C(=O)N[C@@H](C)C(=O)N[C@@H](CC(C)C)C(=O)N[C@@H](C)C(=O)N[C@@H](CCCCN)C(=O)N[C@@H](CCCCN)C(=O)N[C@H](C(=O)N[C@@H](CC(C)C)C(N)=O)[C@@H](C)CC , value?
27.9326%

Checklist item: Average (percentage cell inhibition), Dmastoparan MDA-MB231 12.5uM tested on MDA-MB-231 cells, entry CC[C@H](C)[C@H](N)C(=O)N[C@@H](CC(N)=O)C(=O)N[C@@H](CC(C)C)C(=O)N[C@@H](CCCCN)C(=O)N[C@@H](C)C(=O)N1CCC[C@H]1C(=O)N[C@@H](C)C(=O)N[C@@H](C)C(=O)N[C@@H](CC(C)C)C(=O)N[C@@H](C)C(=O)N[C@@H](CCCCN)C(=O)N[C@@H](CCCCN)C(=O)N[C@H](C(=O)N[C@@H](CC(C)C)C(N)=O)[C@@H](C)CC , value?
-16.4349%

Where do the numbers come from? From paper PMC12748989.
